# system under test: Nuclear receptor subfamily 1 group D member 1 (Homo sapiens, UniProt P20393)
# Sequence (P20393 whole entry): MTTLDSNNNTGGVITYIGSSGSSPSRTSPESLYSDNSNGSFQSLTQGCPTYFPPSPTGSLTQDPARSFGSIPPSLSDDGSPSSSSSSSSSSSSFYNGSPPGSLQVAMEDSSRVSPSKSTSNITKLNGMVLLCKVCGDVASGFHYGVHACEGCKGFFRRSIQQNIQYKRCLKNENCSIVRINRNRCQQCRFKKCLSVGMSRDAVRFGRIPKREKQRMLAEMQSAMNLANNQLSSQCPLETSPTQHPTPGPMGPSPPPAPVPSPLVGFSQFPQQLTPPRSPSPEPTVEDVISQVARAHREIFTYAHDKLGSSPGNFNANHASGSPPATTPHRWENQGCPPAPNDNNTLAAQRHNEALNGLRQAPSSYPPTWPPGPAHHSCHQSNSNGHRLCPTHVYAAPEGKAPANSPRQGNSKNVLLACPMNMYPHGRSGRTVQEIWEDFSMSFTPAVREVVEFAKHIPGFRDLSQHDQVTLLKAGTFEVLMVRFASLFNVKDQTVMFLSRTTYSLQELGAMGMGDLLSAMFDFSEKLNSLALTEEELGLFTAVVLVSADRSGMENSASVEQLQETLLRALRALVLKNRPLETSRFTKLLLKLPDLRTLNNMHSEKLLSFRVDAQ
# assay details: Agonist activity at Rev-Erbalpha expressed in HEK293 cells coexpressing […] promoter assessed as repression of transcription after 24 hrs by dual-Glo luciferase assay
# Format: functional, cell-based
endpoint label: EC50 (µM)
One number for each entry, in µM.

Record excerpt, results attached:
compound: O=[N+]([O-])c1ccc(CN(Cc2ccc(Cl)cc2)CC2COc3ccccc3O2)s1 (racemic)
EC50 (µM): 7.8

compound: O=C(Nc1ccc([N+](=O)[O-])cc1)N1CCC(CN(Cc2ccc(Cl)cc2)Cc2ccc([N+](=O)[O-])s2)C1 (racemic)
EC50 (µM): 0.4

compound: CC(C)(C)OC(=O)CN(Cc1ccc([N+](=O)[O-])cc1)Cc1ccc([N+](=O)[O-])s1
EC50 (µM): 2.5

compound: Cc1ccc(S(=O)(=O)N(CC(=O)OC(C)(C)C)Cc2ccc([N+](=O)[O-])s2)cc1
EC50 (µM): 3

For the next question, use this compound.
Input: Entry `Cc1ccc(S(=O)(=O)N(Cc2ccc(Cl)cc2)Cc2ccc([N+](=O)[O-])s2)cc1` has what EC50?
Output: 2.5

###

# system under test: Nuclear receptor subfamily 1 group D member 1 (Homo sapiens) (UniProt P20393)
# Sequence (P20393 whole entry): as above
# assay details: Agonist activity at Rev-Erbalpha expressed in HEK293 cells coexpressing […] promoter assessed as repression of transcription at 10 uM after 24 hrs by dual-Glo luciferase assay relative to control
# Format: functional, cell-based
For each entry below, report its Ratio value.
Give bare numbers.

# example entries with known answers
molecule: COc1ccc(CN(CC(=O)OC(C)(C)C)Cc2ccc([N+](=O)[O-])s2)cc1
system under test: Nuclear receptor subfamily 1 group D member 1 (Homo sapiens) (UniProt P20393)
Ratio: 0.68
--
molecule: COC(=O)CN(Cc1ccc(Cl)cc1)Cc1ccc([N+](=O)[O-])s1
system under test: Nuclear receptor subfamily 1 group D member 1 (Homo sapiens) (UniProt P20393)
Ratio: 0.8
--
molecule: CC(C)(C)OC(=O)CN(Cc1ccc([N+](=O)[O-])s1)S(=O)(=O)c1cccc2ccccc12
system under test: Nuclear receptor subfamily 1 group D member 1 (Homo sapiens) (UniProt P20393)
Ratio: 0.37
--
molecule: CC(C)(C)OC(=O)CN(Cc1ccc([N+](=O)[O-])cc1)Cc1ccc([N+](=O)[O-])s1
system under test: Nuclear receptor subfamily 1 group D member 1 (Homo sapiens) (UniProt P20393)
Ratio: 0.58
--
molecule: O=C(Oc1ccccc1)N1CCC(CN(Cc2ccc(Cl)cc2)Cc2ccc([N+](=O)[O-])s2)C1 (racemic)
system under test: Nuclear receptor subfamily 1 group D member 1 (Homo sapiens) (UniProt P20393)
Ratio: 0.55

Batch: Ratio for all items listed.
1. C=CCOC(=O)N1CCC(CN(Cc2ccc(Cl)cc2)Cc2ccc([N+](=O)[O-])s2)C1 (racemic)
2. CS(=O)(=O)N1CCC(CN(Cc2ccc(Cl)cc2)Cc2ccc([N+](=O)[O-])s2)C1 (racemic)
3. O=C(Nc1ccccc1)N1CCC(CN(Cc2ccc(Cl)cc2)Cc2ccc([N+](=O)[O-])s2)C1 (racemic)
4. CC(C)(C)OC(=O)CN(Cc1ccc(Cl)cc1)Cc1cnc[nH]1
5. CC(C)(C)OC(=O)CN(Cc1ccncc1)Cc1ccc(Cl)cc1

Output:
1. 0.35
2. 0.3
3. 0.33
4. 0.88
5. 0.81

For every item below, please supply its Ratio.
1. O=[N+]([O-])c1ccc(CN(Cc2ccc(Cl)cc2)CC2CCN(Cc3ccccc3)C2)s1 (racemic)
2. CC(C)(C)OC(=O)N1CCCC(CN(Cc2ccc(Cl)cc2)Cc2ccc([N+](=O)[O-])s2)C1 (racemic)

Output:
1: 1; 2: 0.9

Go through the list and state Ratio for each entry.
1. O=[N+]([O-])c1ccc(CN(Cc2ccc(Cl)cc2)Cc2ccc(C(F)(F)F)cc2)s1
2. Cc1ccc(S(=O)(=O)N(Cc2ccc(Cl)cc2)Cc2ccc([N+](=O)[O-])s2)cc1
3. O=[N+]([O-])c1ccc(CN(Cc2ccc(Cl)cc2)CC2CCCCC2)s1
4. CC(C)(C)OC(=O)CN(Cc1ccc(F)cc1)Cc1ccc([N+](=O)[O-])s1
5. CCCCNC(=O)N1CCC(CN(Cc2ccc(Cl)cc2)Cc2ccc([N+](=O)[O-])s2)C1 (racemic)

Output:
1: 0.45; 2: 0.5; 3: 0.3; 4: 0.77; 5: 0.35

Input: Any idea what Ratio was measured for CC(C)(C)OC(=O)N1CCC(N(Cc2ccc(Cl)cc2)Cc2ccc([N+](=O)[O-])s2)C1 (racemic) ?
Output: 0.24

###

# system under test: Nuclear receptor subfamily 1 group D member 1 (Homo sapiens)
# assay details: Agonist activity at Rev-Erbalpha expressed in HEK293 cells coexpressing […] promoter assessed as repression of transcription at 10 uM after 24 hrs by dual-Glo luciferase assay relative to control
# Assay type: functional, cell-based
Entries get a class label from measured Ratio. See ranges: low group = under 0.5, middle group = from 0.5 up to 0.8, high group = 0.8 and over

Example cases with answers are listed next.
molecule: O=[N+]([O-])c1ccc(CN(Cc2ccc(Cl)cc2)CC2CCN(S(=O)(=O)Cc3ccccc3)C2)s1 (racemic)
answer label: low group

molecule: NC(=O)CN(Cc1ccc(Cl)cc1)Cc1ccc([N+](=O)[O-])s1
answer label: middle group

molecule: O=C(O)CN(Cc1ccc(Cl)cc1)Cc1ccc([N+](=O)[O-])s1
answer label: high group

molecule: O=C(Nc1ccc([N+](=O)[O-])cc1)N1CCC(CN(Cc2ccc(Cl)cc2)Cc2ccc([N+](=O)[O-])s2)C1 (racemic)
answer label: low group

molecule: CC(C)(C)OC(=O)CNCc1ccc(Cl)cc1
answer label: high group

Input: Using the reported Ratio, which band applies to `CC(C)(C)OC(=O)CN(Cc1ccc(Cl)cc1)CC1CCCC1` ?
Output: high group

###

# system under test: Nuclear receptor subfamily 1 group D member 1 (Homo sapiens) (UniProt P20393)
# assay details: Agonist activity at Rev-Erbalpha expressed in HEK293 cells coexpressing […] promoter assessed as repression of transcription at 10 uM after 24 hrs by dual-Glo luciferase assay relative to control
# Type: functional, cell-based
Hi there, I'd appreciate the recorded Ratio for every entry that follows.
Give bare numbers.

Worked cases, answers included:
structure smiles string: Cc1ccc(S(=O)(=O)N(CC(=O)OC(C)(C)C)Cc2ccc([N+](=O)[O-])s2)cc1
Ratio: 0.5
--
structure smiles string: CC(C)(C)OC(=O)N1CCC(CN(Cc2ccc(Cl)cc2)Cc2ccc([N+](=O)[O-])s2)CC1
Ratio: 0.8

Turning now to a further record.
Input: Fill blank: measured Ratio of the molecule `CC(C)(C)OC(=O)CN(Cc1ccc(Cl)cc1)Cc1nc2ccccc2s1` is ____.
Output: 0.82

Source listed as ChEMBL document CHEMBL2057134.
